// data source = the CATMoS acute toxicity set (Mansouri et al. 2021)

Assay: rat acute oral toxicity
Conditions: in vivo
Classify: 1.0 when LD50 is strictly less than 300 mg/kg; 0.0 when LD50 is not.

Query: Say whether its LD50 is strictly beneath 300 mg/kg. Entry: CC(C)(N)Cc1ccccc1
Response: 1.0

Query: Just wondering, is LD50 of C1CO1 below 300 mg/kg?
Response: 1.0

Query: Lab log: compare recorded LD50 with 300 mg/kg; is it strictly lower for COP(=S)(OC)SCN1C(=O)c2ccccc2C1=O ?
Response: 1.0

Query: Dear reviewer, please state whether CCCCCCCCCCCCN(CCCN)CCCN has LD50 strictly beneath 300 mg/kg.
Response: 1.0

Query: Please let me know if C=CCOC(=O)OCCOCCOC(=O)OCC=C shows LD50 below 300 mg/kg.
Response: 0.0

Query: Consider the molecule O=C(CC(C(=O)OC1CCCCC1)S(=O)(=O)O)OC1CCCCC1 (configuration not stated) . Is its LD50 strictly less than 300 mg/kg?
Response: 0.0

Query: Lab log: compare recorded LD50 with 300 mg/kg; is it strictly lower for C/C(=N\NC(=O)Nc1cc(F)cc(F)c1)c1ncccc1C(=O)O ?
Response: 0.0

Query: # TODO verify LD50 < 300 mg/kg strictly for this molecule: CCCSP(=S)(OCC)Oc1ccc(SC)cc1 (configuration not stated)
Response: 1.0

Query: In the record for CCCC(O)C(CC)CO (configuration not stated) , is LD50 less than 300 mg/kg?
Response: 0.0

Query: Lab note: confirm whether the reported LD50 for this molecule is below 300 mg/kg, equality not counting. molecule: COC(C)(C)CCCC(C)C/C=C/C(C)=C/C(=O)OC(C)C (configuration not stated)
Response: 0.0

Query: State whether 300 mg/kg exceeds LD50 recorded for CCCCN(CCCC)SN(C)C(=O)Oc1cccc2c1OC(C)(C)C2 .
Response: 1.0

Query: # strict comparison: is reported LD50 < 300 mg/kg? input = OC[C@@H](O)[C@H](O)[C@@H](O)CO
Response: 0.0

Query: Is it true that LD50 reported for CCNc1ccccc1 is less than 300 mg/kg?
Response: 0.0

Query: Threshold test, LD50 < 300 mg/kg: CC(=O)OCCOC(C)=O
Response: 0.0

Query: hey, is LD50 for CC1OC(C)OC(C)OC(C)O1 (configuration not stated) lower than 300 mg/kg or not?
Response: 1.0

Query: Identify whether the molecule CCCCNCCCC records LD50 below 300 mg/kg.
Response: 1.0

Query: I wonder whether CCC1CO1 (configuration not stated) has LD50 below 300 mg/kg. Can you tell?
Response: 0.0

Query: Please check: LD50 for CC(C)c1ccc2ccc(C(C)C)cc2c1 , strictly under 300 mg/kg or not?
Response: 0.0

Query: Does the reported LD50 of O=[N+]([O-])c1ccc(O)c([N+](=O)[O-])c1 stay below 300 mg/kg?
Response: 1.0

Query: Hello, I'm reviewing records and need to know if LD50 of ClC1=C(Cl)C2(Cl)C3C(Cl)OC(Cl)C3C1(Cl)C2(Cl)Cl (configuration not stated) is below 300 mg/kg. Could you check?
Response: 1.0

Query: I wonder whether C=CC(C#N)OC(C)=O (configuration not stated) has LD50 below 300 mg/kg. Can you tell?
Response: 1.0

Query: # check: LD50 < 300 mg/kg for O=[N+]([O-])c1cccc(O)c1
Response: 0.0

Query: Just wondering, is LD50 of CC(C)CC(=O)CC(C)C below 300 mg/kg?
Response: 0.0

Query: Identify whether the molecule CCC12COCN1COC2 records LD50 below 300 mg/kg.
Response: 0.0

Query: Hello, I'm reviewing records and need to know if LD50 of OCCOCCOCCO is below 300 mg/kg. Could you check?
Response: 0.0

Query: # check: LD50 < 300 mg/kg for CC=C1CC2C=CC1C2 (configuration not stated)
Response: 0.0

Query: Criterion: LD50 strictly below 300 mg/kg. Is it met by CC(C)(C)c1ccc(O)c(O)c1 ?
Response: 0.0

Query: Consider CS(C)=O . Does its LD50 lie strictly below 300 mg/kg?
Response: 0.0

Query: Is LD50 strictly under 300 mg/kg for the entry CC1(C)CC(=O)CC(C)(C#N)C1 (configuration not stated) ?
Response: 1.0

Query: Is LD50 of O=c1n(Cl)c(=O)n(Cl)c(=O)n1Cl strictly below 300 mg/kg?
Response: 0.0

Query: Dear reviewer, please state whether CC(C)(C)c1ccc(CCOc2ncnc3ccccc23)cc1 has LD50 strictly beneath 300 mg/kg.
Response: 1.0

Query: Check if LD50 falls below 300 mg/kg for CC(C)OC(=O)COc1ccc(Cl)cc1Cl .
Response: 0.0
